System: UO-31 renal
method notes: NCI tumour cell line growth inhibition, 48 h; in the data active means GI50 below about 0.43 µM; inactive means the rest
# output must be one of true = active, false = inactive

I'd appreciate the recorded outcome for COc1cccc(/C=N/[N-]C(=O)c2ccncc2)c1[O-].COc1cccc(/C=N/[N-]C(=O)c2ccncc2)c1[O-].[O]=[U](=[O])([OH2+])[OH2+] from this test.
false

// next record Nc1cc2c(cc1Br)[nH]c(=O)c1ccccc12
false

// next record O=C(O)c1cccc(COc2ccc([N+](=O)[O-])cc2Cl)c1
false

// next record COc1cc2c(/C=N\N=C(N)N)c[nH]c2cc1C
false

// next record O=C(Nc1cc(Cl)ccc1O)c1ccc(Nc2ccnc(C(F)(F)F)c2)cc1
false

// next record COc1cc2cc(Oc3ccc(NC(=O)c4cc(C(F)(F)F)cc(C(F)(F)F)c4)cc3)c(C)nc2cc1OC
false

// next record C=CC(=O)N1CN(C(=O)C=C)CN(C(=O)C=C)C1
false

// next record COc1ccc(-c2nccn2-c2ccc(OC)cc2)cc1
false

// next record c1coc(-c2c3ccc(=[N+]4CCCCC4)cc-3oc3cc(N4CCCCC4)ccc23)c1
true

// next record CCN(CC)CCCCCCNc1cccc2cc(Br)cnc12
false
